Origin of measurements: the RNAGym collection of RNA variant scans (doi:10.7554/elife.80360)

B1: HDV Ribozyme (parent)
chain: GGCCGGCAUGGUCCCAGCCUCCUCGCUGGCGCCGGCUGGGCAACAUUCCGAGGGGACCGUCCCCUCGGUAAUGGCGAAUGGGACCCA

Variants of: B1
Experiment: self-cleavage, relative activity (ratio to wild type); higher = more cleavage; co-transcriptional
Hi, to clarify the labels: Criterion met covers self-cleavage from 0.3 upward, Criterion not met covers anything below 0.3.

Please indicate if the recorded self-cleavage for U23G C44U meets or exceeds 0.3. Criterion met

Can C13A C32A be said to have self-cleavage at or above 0.3? Criterion not met

Could you please find out whether C62U G68U has self-cleavage that meets 0.3 or exceeds it? Criterion met

Is reported self-cleavage greater than or equal to 0.3 here: U47C U79G Criterion met

Does self-cleavage meet or surpass 0.3 for G2C G76U ? Criterion not met

Identify whether the reported self-cleavage of the following variant is 0.3 or greater: C7U A8G Criterion met

Kindly determine if self-cleavage recorded for C21A G25C is above or exactly 0.3. Criterion not met

Tell me whether self-cleavage is at least 0.3 here: G29C U65A Criterion not met

Is the recorded value of self-cleavage equal to or greater than 0.3 for this variant? G35U A87G Criterion not met

Decide: is the reported value of self-cleavage for C7G G35A equal to or greater than 0.3? Criterion not met

Given C19G A71C , state whether its self-cleavage is at least 0.3. Criterion not met
